Biological target: CYP3A4 (Homo sapiens, UniProt P08684)
Sequence (P08684 whole entry): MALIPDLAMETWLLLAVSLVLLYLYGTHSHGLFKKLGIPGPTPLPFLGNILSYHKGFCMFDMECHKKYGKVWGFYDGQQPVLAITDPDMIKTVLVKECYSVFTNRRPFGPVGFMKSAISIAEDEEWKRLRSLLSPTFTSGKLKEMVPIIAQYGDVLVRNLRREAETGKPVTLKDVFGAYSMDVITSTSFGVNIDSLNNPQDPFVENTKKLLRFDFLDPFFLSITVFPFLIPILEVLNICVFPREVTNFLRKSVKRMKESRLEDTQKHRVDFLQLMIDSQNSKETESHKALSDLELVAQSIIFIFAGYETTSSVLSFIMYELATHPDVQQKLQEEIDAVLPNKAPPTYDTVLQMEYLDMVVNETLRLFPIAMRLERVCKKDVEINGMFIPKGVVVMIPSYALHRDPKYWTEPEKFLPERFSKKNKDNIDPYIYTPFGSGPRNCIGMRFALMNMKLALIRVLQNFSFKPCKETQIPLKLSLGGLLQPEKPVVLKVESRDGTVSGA
Test: Determination of compound Kiapp against recombinant CYP3A4 enzyme (BFC fluorescent substrate)
Type: biochemical
Conditions: Baculo. enzyme preparation, read-out: Kiapp (BFC, Baculo.)
metric: pKi
Give only the number. pKi is defined as minus log10 of concentration in molar units.

COc1ccncc1NS(=O)(=O)c1ccccc1C(=O)NCCOc1ccccc1 6.40

Here's the next entry for you.
Query string: Which value of pKi has been reported for O=C(NC1CCC1)c1ccccc1S(=O)(=O)Nc1cccnc1 in the records?
Result string: 6.04

---

Target: CYP3A4 (Homo sapiens, UniProt P08684)
Assay: Determination of IC50 against CYP3A4 by measurement of inhibition of midazolam metabolism (human liver microsomes, 1-hydroxymidazolam by LC-MS/MS)
Format: biochemical
Design: 0.1 mg/mL human liver microsomes
Conditions: 2 μM midazolam, 0.1 mg/mL human liver microsomes
metric: pIC50
pIC50 is defined as minus the log10 of a concentration measured in mol/L.

Answered cases to consult:
compound	pIC50
CCOCCNC(=O)c1ccccc1S(=O)(=O)Nc1cnccc1OC	6.59
CC1CC(C)CN(C(=O)c2ccccc2S(=O)(=O)N(C)c2cccnc2)C1 (stereo not drawn)	7.17

Query string: Any idea what pIC50 was measured for COc1cncc(NS(=O)(=O)c2ccccc2C(=O)NCc2ccc(F)c(F)c2)c1 ?
Result string: 8.22

Query string: Note, next up: CCCCCNC(=O)c1ccccc1S(=O)(=O)Nc1cncc(OC)c1
Result string: 7.68

Query string: What about CCOc1ccncc1NS(=O)(=O)c1ccccc1C(=O)N(C)Cc1ccc(F)c(F)c1 ?
Result string: 8.00

Query string: # iterate: Cc1cncc(NS(=O)(=O)c2ccccc2C(=O)N(C)Cc2ccc(F)cc2)c1
Result string: 7.96

Query string: Same read-out for CN(Cc1ccc(F)cc1)C(=O)c1ccccc1S(=O)(=O)Nc1cccnc1 ?
Result string: 7.44

Query string: Param item: CCCCN(C)C(=O)c1ccccc1S(=O)(=O)Nc1cnccc1C
Result string: 7.38

Query string: Next compound up: COc1cncc(NS(=O)(=O)c2ccccc2C(=O)NC2CCC(C)CC2)c1 (stereo not drawn)
Result string: 7.92

---

Target: CYP3A4 (Homo sapiens, UniProt P08684)
Test: Determination of IC50 against CYP3A4 by measurement of inhibition of testosterone metabolism (human liver microsomes, 6-β-OH-testosterone by LC-MS/MS)
Format: biochemical
Parameters: 0.1 mg/mL human liver microsomes
Details: read-out: IC50 (Testo.)
metric: pIC50
Expect pIC50 as a plain number equal to -log10 of the molar concentration.

Previously resolved entries follow.
molecule	pIC50
COc1cncc(NS(=O)(=O)c2ccccc2C(=O)N2CCCC2)c1	6.74
COc1cncc(NS(=O)(=O)c2ccccc2C(=O)NCc2ccc(F)cc2F)c1	8.10
CCCCN(C)C(=O)c1ccccc1S(=O)(=O)Nc1cncc(C)c1	7.51
COc1cncc(NS(=O)(=O)c2ccccc2C(=O)NC(C(C)C)C(C)C)c1	7.72
CCOc1ccncc1NS(=O)(=O)c1ccccc1C(=O)NCCC(C)C	7.68
CN(Cc1cccc(F)c1)C(=O)c1ccccc1S(=O)(=O)Nc1cccnc1	7.41

Query string: Param item = O=C(NC1Cc2ccccc2C1)c1ccccc1S(=O)(=O)Nc1cccnc1 ; retrieve measured pIC50.
Result string: 7.60

Query string: Item: COc1cncc(NS(=O)(=O)c2ccccc2C(=O)NCc2ccc(Cl)cc2C)c1
Result string: 8.15

Query string: What do you get for COc1cncc(NS(=O)(=O)c2ccccc2C(=O)NCCc2ccncc2)c1 ?
Result string: 6.46

Query string: Next molecule up: O=C(NCc1cccc(F)c1)c1ccccc1S(=O)(=O)Nc1cccnc1
Result string: 7.66

---

Target: CYP3A4 (Homo sapiens)
Experiment: Determination of compound Kiapp against recombinant CYP3A4 enzyme (BFC fluorescent substrate)
Format: biochemical
Settings: Super. enzyme preparation, read-out: Kiapp (BFC, Super.)
The entries below come with measured log10 of Ki values attached.
The common logarithm of Ki in nM is what is listed.

compound	testTarget	log10 of Ki
CCCCCNC(=O)c1ccccc1S(=O)(=O)Nc1cccnc1 [Example 61]	CYP3A4 (Homo sapiens)	0.89

Query string: Provide the documented log10 of Ki with CYP3A4 (Homo sapiens) as the system for COc1ccncc1NS(=O)(=O)c1ccccc1C(=O)NCCc1ccccc1F [Example 222]
Result string: 1.10

Query string: Now the same for CCOc1cncc(NS(=O)(=O)c2ccccc2C(=O)NCCc2ccccc2C)c1 [Example 292]
Result string: -0.21

Query string: Can you handle COc1ccncc1NS(=O)(=O)c1ccccc1C(=O)NCCC(C)C [Example 277] next?
Result string: 1.68

Query string: Input COc1cncc(NS(=O)(=O)c2ccccc2C(=O)NC(CO)Cc2ccc(Cl)cc2)c1 (centres unmarked) [Example 199]
Result string: 1.02

---

Target: UniProt:P08684
Experiment: Determination of compound Kiapp against recombinant CYP3A4 enzyme (BFC fluorescent substrate)
Type: biochemical
Settings: Super. enzyme preparation, read-out: Kiapp (BFC, Super.)
Reported Ki by item:
Form entry: value (nM) — number only.

molecule	Ki (nM)
Cc1cncc(NS(=O)(=O)c2ccccc2C(=O)N(C)Cc2ccccc2)c1 [Example 335]	16.8
COc1cncc(NS(=O)(=O)c2ccccc2C(=O)N[C@H](CO)CC2CCCCC2)c1 [Example 190]	3.4
Cc1ccncc1NS(=O)(=O)c1ccccc1C(=O)NCc1ccc(F)c(Cl)c1 [Example 168]	11.7

Now, please, on to the next molecule.
Query string: Suppose we examine the molecule Cc1cncc(NS(=O)(=O)c2ccccc2C(=O)NCc2ccc(S(C)(=O)=O)cc2)c1 [Example 159] ; what Ki value has been reported?
Result string: 144

---

Target: CYP3A4 (Homo sapiens, UniProt P08684)
Test: Determination of IC50 against CYP3A4 by measurement of inhibition of midazolam metabolism (human liver microsomes, 1-hydroxymidazolam by LC-MS/MS)
Assay type: biochemical
Parameters: 0.1 mg/mL human liver microsomes
Conditions: 2 μM midazolam, 0.1 mg/mL human liver microsomes
Protocol: 3. Determination of IC50 Against CYP3A4 by Measurement of Inhibition of Midazolam Metabolism This assay was performed using a standard 96 well plate design. […] Quantitation of metabolite peak area ratio against internal standard is determined by LC-MS/MS analysis. The production of 1-hydroxymidazolam from midazolam metabolism is determined after incubation for eight minutes by comparison to a standard curve generated for the metabolite. […]
metric: pIC50
# pIC50 is unitless: minus log10 of the molar concentration; print number only

compound	testTarget	pIC50
COc1cncc(NS(=O)(=O)c2ccc(F)cc2C(=O)NCc2ccc(F)cc2)c1 [Example 307]	CYP3A4 (Homo sapiens, UniProt P08684)	7.36
Cc1cncc(NS(=O)(=O)c2ccccc2C(=O)N(C)CC2CCCC2)c1 [Example 347]	CYP3A4 (Homo sapiens, UniProt P08684)	7.89
CCCCCNC(=O)c1ccccc1S(=O)(=O)N(C)c1cncc(OC)c1 [Example 364]	CYP3A4 (Homo sapiens, UniProt P08684)	7.48
COc1ccncc1NS(=O)(=O)c1ccccc1C(=O)N(C)Cc1ccc(F)cc1 [Example 143]	CYP3A4 (Homo sapiens, UniProt P08684)	7.24
COc1cncc(NS(=O)(=O)c2ccccc2C(=O)NCC2CCCCC2)c1 [Example 200]	CYP3A4 (Homo sapiens, UniProt P08684)	7.92

Query string: # lookup: pIC50 of COCCCNC(=O)c1ccccc1S(=O)(=O)Nc1cncc(OC)c1 [Example 236]
Result string: 6.88

Query string: Then what about the compound COc1cncc(NS(=O)(=O)c2ccccc2C(=O)NCc2ccc3c(c2)CCO3)c1 [Example 153] ?
Result string: 8.30

Query string: What about this compound? COc1ccncc1NS(=O)(=O)c1ccccc1C(=O)NCc1ccc(F)c(C(F)(F)F)c1 [Example 255]
Result string: 8.15

Query string: Try this compound next: O=C(NCc1cccc(F)c1)c1ccccc1S(=O)(=O)Nc1cccnc1 [Example 43]
Result string: 7.87

---

Molecular target: CYP3A4 (Homo sapiens)
Experiment: Determination of IC50 against CYP3A4 by measurement of inhibition of midazolam metabolism (human liver microsomes, 1-hydroxymidazolam by LC-MS/MS)
Type: biochemical
Set-up: 0.1 mg/mL human liver microsomes
Conditions: 2 μM midazolam, 0.1 mg/mL human liver microsomes
metric: pIC50
# pIC50: negative log10 of molar concentration; output just the value

compound	pIC50
COc1cncc(NS(=O)(=O)c2ccccc2C(=O)N2CCOC(c3c(F)cccc3F)C2)c1 (stereo not shown)	7.29
CCCCNC(=O)c1ccccc1S(=O)(=O)Nc1cncc(C)c1	7.64

Query string: Lab note: need pIC50 for CCC(C)(C)NC(=O)c1ccccc1S(=O)(=O)Nc1cnccc1OC on CYP3A4 (Homo sapiens), anyone have it?
Result string: 7.29

Query string: Same for Cc1ccncc1NS(=O)(=O)c1ccccc1C(=O)N(C)Cc1ccc(F)cc1
Result string: 7.14
